Test system: 926638-142-R-J1-PDC complex spheroid viability;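 further: spheroids exposed to drugs for one week before readout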
assay_comment: Anticancer human tumor 926638-142-R-J1-PDC patient-derived endometrial carcinoma cell line growth inhibition [POLQ]
run_parameters: second compound 0.0316 µM; first compound 3.16 µM; hits give low values
Rule: viability, T/C below 60% gives met. Equal to or above 60% gives not met.

Query :: Item CC1COCCN1c1cc(C2(S(C)(=N)=O)CC2)nc(-c2ccnc3[nH]ccc23)n1 (stereo unspecified) + COC1C(OC(N)=O)C(O)C(Oc2ccc3c(O)c(NC(=O)c4ccc(O)c(CC=C(C)C)c4)c(=O)oc3c2C)OC1(C)C : viability, T/C beneath 60%, strictly?
Result :: not met

Continuing:
Query :: # check: viability, T/C < 60% for CC1COCCN1c1cc(C2(S(C)(=N)=O)CC2)nc(-c2ccnc3[nH]ccc23)n1 (stereo unspecified) + Nc1ccc(C#CCN(C(=O)Cc2ncc(C(F)(F)F)cc2C(F)(F)F)c2ccc(F)cc2)nn1
Result :: not met

Query :: Strictly below 60%: is that where viability, T/C of COc1ccc([C@@H](O)c2cc(-c3ncnc4cc(N5CCOCC5)ccc34)c(F)cc2Cl)nn1 + COC1C(OC(N)=O)C(O)C(Oc2ccc3c(O)c(NC(=O)c4ccc(O)c(CC=C(C)C)c4)c(=O)oc3c2C)OC1(C)C sits?
Result :: met

Query :: Does CC1COCCN1c1cc(-c2ccnn2C)c2ccnc(-c3ccn[nH]3)c2n1 (stereo unspecified) + COC1C(OC(N)=O)C(O)C(Oc2ccc3c(O)c(NC(=O)c4ccc(O)c(CC=C(C)C)c4)c(=O)oc3c2C)OC1(C)C have viability, T/C strictly under 60%?
Result :: met

Query :: Hi there! Is viability, T/C for CNCc1ccc(-c2[nH]c3cc(F)cc4c3c2CCNC4=O)cc1 + Nc1ccc(C#CCN(C(=O)Cc2ncc(C(F)(F)F)cc2C(F)(F)F)c2ccc(F)cc2)nn1 below 60%, do you know?
Result :: not met

Query :: Check if viability, T/C falls below 60% for O=c1[nH]cc(F)c(=O)[nH]1 + Cc1cccc(N(C)C(=O)C2C(O)CCN2c2nc(C)cc(C(F)(F)F)c2C#N)c1 .
Result :: not met

Query :: Given the entry O=c1[nH]cc(F)c(=O)[nH]1 + COC1C(OC(N)=O)C(O)C(Oc2ccc3c(O)c(NC(=O)c4ccc(O)c(CC=C(C)C)c4)c(=O)oc3c2C)OC1(C)C , would its reported viability, T/C be below 60%?
Result :: not met

Query :: Record CCCS(=O)(=O)Nc1ccc(F)c(C(=O)c2c[nH]c3ncc(-c4ccc(Cl)cc4)cc23)c1F + Cc1cccc(N(C)C(=O)C2C(O)CCN2c2nc(C)cc(C(F)(F)F)c2C#N)c1 : is its viability, T/C strictly below 60%?
Result :: not met
